- Experiment: Solubility of the compound in pH 7.0 buffer by HPLC analysis

Chemical structure | solubility
Cc1cc(C#N)cc(C)c1Oc1nc(Nc2ccc(C#N)cc2)nc(N)c1Br | < 1 µg/mL
Cc1cc(/C=C/C#N)cc(C)c1Nc1ccnc(Nc2ccc(C#N)cc2)n1 | < 1 µg/mL

###

In this section, each of the molecules is paired with its reported selectivity ratio.
- Experiment: Selectivity index, ratio of CC50 for human MT4 cells to EC50 for antiviral activity against HIV1 RES056 infected in human MT4 cells

Chemical structure | selectivity ratio
Cc1cc(/C=C/C#N)cc(C)c1Oc1nc(NC2CCN(Cc3ccc(C#N)cc3)CC2)nc2sccc12 | 56
Cc1cc(/C=C/C#N)cc(C)c1Oc1nc(NC2CCN(Cc3ccc(C(N)=O)cc3)CC2)nc2sccc12 | 53
Cc1cc(/C=C/C#N)cc(C)c1Oc1nc(NC2CCN(Cc3ccc(F)cc3)CC2)nc2sccc12 | 39
CCOC(=O)c1ccc(CN2CCC(Nc3nc(Oc4c(C)cc(/C=C/C#N)cc4C)c4ccsc4n3)CC2)cc1 | 728
Cc1cc(/C=C/C#N)cc(C)c1Oc1nc(NC2CCN(Cc3cccc(C(N)=O)c3)CC2)nc2sccc12 | 64
